Listing of entries alongside the reported pIC50.
# target.entity: Ba/F3 cells transformed with human Tel-TrkA (Homo sapiens)
# Construct: expressed in transfected cells; host or cells: Ba/F3 murine hematopoietic progenitor cells (luciferase expressing); the other entry of the earlier key: ETV6 (P41212, Transcription factor ETV6)
# Sequence (P04629 510-796 limits assumed): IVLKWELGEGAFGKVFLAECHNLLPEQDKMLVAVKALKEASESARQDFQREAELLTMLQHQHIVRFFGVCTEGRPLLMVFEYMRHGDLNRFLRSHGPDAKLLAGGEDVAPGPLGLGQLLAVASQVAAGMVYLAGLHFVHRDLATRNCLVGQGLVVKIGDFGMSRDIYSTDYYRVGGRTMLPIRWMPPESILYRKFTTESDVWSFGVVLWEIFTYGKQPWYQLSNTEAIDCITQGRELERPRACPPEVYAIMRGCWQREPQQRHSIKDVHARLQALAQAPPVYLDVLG
# assay.overview: Proliferation of Ba/F3 cells transformed with human Tel-TrkA (Ba/F3 Tel-TrkA)
# Format: cell-based
# test.settings: Table 1; 48 hours, Bright Glo luminescence; read-out: Ba/F3 Tel-TrkA
pIC50: −log10 of the molar value.

compound	pIC50
O=C(NC1CCOCC1)c1cnc2ccc(N3CCC[C@@H]3c3cccc(F)c3)nn12 [X-93]	8.00
O=C(NC[C@H](O)CO)c1cnc2ccc(N3CCC[C@@H]3c3cccc(F)c3)nn12 [X-105]	6.41
O=C(NC1CCN(C(=O)CO)CC1)c1cnc2ccc(N3CCC[C@@H]3c3cccc(F)c3)nn12 [X-75]	7.01
O=C(NCC1CC1)c1cnc2ccc(N3CCC[C@@H]3c3cccc(F)c3)nn12 [X-90]	7.85
CCOC(=O)c1cnc2ccc(N3C[C@@H](F)C[C@@H]3c3cccc(F)c3)nn12 [X-165]	8.40
[2H]C1(c2cccc(F)c2)CCCN1c1ccc2ncc(C(N)=O)n2n1 (stereo not drawn) [X-8]	6.82
CC(=O)N1CCC(NC(=O)c2cnc3ccc(N4CCC[C@@H]4c4cccc(F)c4)nn23)CC1 [X-67]	7.09
CC(C)CNC(=O)c1cnc2ccc(N3CCC[C@@H]3c3cccc(F)c3)nn12 [X-94]	7.80
O=C(NCc1ccc(F)cc1)c1cnc2ccc(N3CCC[C@@H]3c3cccc(F)c3)nn12 [X-47]	7.15
CN(C)CCONC(=O)c1cnc2ccc(N3CCC[C@@H]3c3cccc(F)c3)nn12 [X-146]	6.52
O=C(NC1CC1)c1cnc2ccc(N3CCC[C@@H]3c3cccc(F)c3)nn12 [X-44]	7.96
O=C(NCc1ccccc1F)c1cnc2ccc(N3CCC[C@@H]3c3cccc(F)c3)nn12 [X-69]	6.98
[2H]C1([2H])CC[C@H](c2cccc(F)c2)N1c1ccc2ncc(C(N)=O)n2n1 [X-11]	7.60
CC(=O)OC(C)(C)C(=O)Nc1cnc2ccc(N3CCC[C@@H]3c3cccc(F)c3)nn12 [X-188]	7.34
CCNC(=O)c1cnc2ccc(N3CCCC3c3cccc(F)c3)nn12 (stereo not drawn) [X-21]	7.38
CC(C)(C)ONC(=O)c1cnc2ccc(N3CCC[C@@H]3c3cccc(F)c3)nn12 [X-145]	7.48
O=C(c1cnc2ccc(N3CCC[C@@H]3c3cccc(F)c3)nn12)C(F)F [X-124]	6.07
O=C(NCC(F)(F)F)c1cnc2ccc(N3CCC[C@@H]3c3cccc(F)c3)nn12 [X-53]	8.52
O=C(NCCCN1CCOCC1)c1cnc2ccc(N3CCC[C@@H]3c3cccc(F)c3)nn12 [X-58]	6.41
CC(C)C[C@@H](CO)NC(=O)c1cnc2ccc(N3CCC[C@@H]3c3cccc(F)c3)nn12 [X-104]	6.16
COCCNC(=O)c1cnc2ccc(N3CCC[C@@H]3c3cccc(F)c3)nn12 [X-51]	7.17
CCOC(=O)c1cnc2ccc(N3CC(F)(F)C(F)(F)[C@@H]3c3cccc(F)c3)nn12 [X-164]	6.22
O=C(NCC1CCCC1)c1cnc2ccc(N3CCC[C@@H]3c3cccc(F)c3)nn12 [X-109]	7.40
CCN(CC)CCCNC(=O)c1cnc2ccc(N3CCC[C@H]3c3cccc(F)c3)nn12 [X-40]	6.02
O=C(NCCO)c1cnc2ccc(N3C[C@@H](F)C[C@@H]3c3cccc(F)c3)nn12 [X-119]	8.52
NC(=O)c1cnc2ccc(N3CC=C[C@@H]3c3cccc(F)c3)nn12 [X-15]	7.89
CCOC(=O)c1cnc2ccc(N3CCCCC3c3cccc(F)c3)nn12 (stereo not drawn) [X-156]	7.03
NC(=O)c1cnc2ccc(N3CCC[C@@H]3c3cccc(F)c3)nn12 [X-6]	7.29
O=C(NC[C@@H]1CCCO1)c1cnc2ccc(N3CCC[C@@H]3c3cccc(F)c3)nn12 [X-85]	7.27
CC(C)(C)OC(=O)N1CC[C@@H](NC(=O)c2cnc3ccc(N4CCC[C@@H]4c4cccc(F)c4)nn23)C1 [X-62]	6.04

Source listed as patent US8637516B2.
